Recorded values, source patent US12629375B2.

- Tested on: MCF10A cells expressing HER2 G776del insVC
- procedure.details: MCF10A cell viability, HER2 G776del insVC
- Type: cell-based
- condition.description: Homo sapiens, MCF-10A, 72 hours
pIC50: −log10 of the molar value.
observation.type: pIC50

smiles.code: C=CC(=O)N1CCC(Oc2cc3c(Nc4ccc(Cl)c(Cl)c4F)ncnc3cc2OC)CC1
observation.type: pIC50
endpoint.value: 7.92

* * *

- Tested on: CW-2 large intestine cells harboring HER2 exon 19 mutation L755S
- procedure.details: CW-2 cell viability
- Format: cell-based
- condition.description: Homo sapiens, CW-2, 72 h, read-out: average IC50
pIC50: −log10 of the molar value.
observation.type: pIC50

molecule: CCOc1cc2ncc(C#N)c(Nc3ccc(OCc4ccccn4)c(Cl)c3)c2cc1NC(=O)/C=C/CN(C)C [neratinib]
observation.type: pIC50
endpoint.value: 7.16
